Molecular target: T1, human DLL1 protein (human, UniProt O00548 18-540, limits assumed)
T1 construct: bought protein; construct and tag not described; also called hDLL1
T1 sequence (looked up): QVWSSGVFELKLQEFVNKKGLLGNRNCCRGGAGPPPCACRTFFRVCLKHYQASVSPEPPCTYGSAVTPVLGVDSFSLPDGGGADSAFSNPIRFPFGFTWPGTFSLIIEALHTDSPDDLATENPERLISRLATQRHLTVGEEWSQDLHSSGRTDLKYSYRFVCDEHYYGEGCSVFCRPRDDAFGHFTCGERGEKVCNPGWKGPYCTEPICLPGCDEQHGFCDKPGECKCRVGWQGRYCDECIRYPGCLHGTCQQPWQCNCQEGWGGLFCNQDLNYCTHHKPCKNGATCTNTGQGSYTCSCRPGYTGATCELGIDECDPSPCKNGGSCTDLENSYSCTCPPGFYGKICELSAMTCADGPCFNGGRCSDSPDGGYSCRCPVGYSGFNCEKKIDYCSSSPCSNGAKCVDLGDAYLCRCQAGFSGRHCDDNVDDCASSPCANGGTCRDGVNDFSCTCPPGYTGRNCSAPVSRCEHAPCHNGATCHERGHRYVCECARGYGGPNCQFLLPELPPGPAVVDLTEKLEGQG
Experiment: ELISA, maximum over 0.1-100 nM
Recorded Emax of OD450 nm binding value for the following binders
measured.property: Emax of OD450 nm binding value (OD450)

binder="mab004 scFv-hFc (Fc fusion, human-murine chimeric scFv-hFc, VL-linker-VH-human IgG1 Fc; not shown: linker; Fc fragment of human IgG1) scFv (part 1 of 2): DIVLTQSPASLAVSLGQRATISCRASESVDYDGDSYMNWYQQKPGQPPKLLIYVASNLESGIPARFSGSGSGTDFILNIHPVEEEDAATYYCLQSNEAPYTFGSGTKLEIK scFv (part 2 of 2): QVQLQQPGAELVKPGASVKLSCKASGYTFTSYWINWVKQRPGQGLEWIGNIYPGSSSPNYNEKFKSKATLTVDTSSSTAYMQLSSLTSDDSAVYYCARSLLYAMDYWGQGTSVTVSS" recorded_measurement=0.05
binder="mab008 scFv-hFc (Fc fusion, human-murine chimeric scFv-hFc, VL-linker-VH-human IgG1 Fc; not shown: linker; Fc fragment of human IgG1) scFv (part 1 of 2): DIVMTQSQKFMSTSVGDRVSITCKASQNVGTAVAWYQQKPGQSPKLLIFSASIRYTGVPDRFTGSGSGTDFTLTISNMQSEDLADYFCQQYSSSPYTFGGGTKLEIK scFv (part 2 of 2): EVQLQQSGPVLVKPGASVKMSCKASGYTFTDYYMNWVKRSHGKSLEWIGIINPYNGGTSYNQKFRGKATLTVDKSSNTAYMELNSLTSEDSAVYYCSRYDYDYDVEGAMDYWGQGTSVTVSS" recorded_measurement=0.09
binder="mab016 scFv-hFc (Fc fusion, human-murine chimeric scFv-hFc, VL-linker-VH-human IgG1 Fc; not shown: linker; Fc fragment of human IgG1) scFv (part 1 of 2): DIVMTQSQKFMSTTIGDRVSITCKASQNVGTTVAWYQQKPGQSPNLLLYSTSNRFTGVPDRFTGSGSGTDFTLTITNMQSEDLADYFCQQYNNYPLTFGGGTKLEIK scFv (part 2 of 2): EVNLEESGGGLVQPGGSMKLSCVASGFAFSNFWMQWVRQSPEKGLEWVAQIRLKSDNYAAHYAESVKGRFTISRDDSKSSVYLQLNNLRAEDTGTYYCTQGNWVGFAYWGQGTLVTVSA" recorded_measurement=0.05
binder="mab007 scFv-hFc (Fc fusion, human-murine chimeric scFv-hFc, VL-linker-VH-human IgG1 Fc; not shown: linker; Fc fragment of human IgG1) scFv (part 1 of 2): DVQITQSPSYLAASPGETITINCRASTSISKYLAWYQERPGKTNKLLIYSGSTLQSGIPSRFRGSGSGTDFTLTISSLEPEDFAMYYCQQHHVYPYTFGGGTKLEIK scFv (part 2 of 2): QVQLQQPGAELVRPGTSVKLSCKASGYTFTSYWMHWVKQRPGQGLEWIGVIDPSDSLANYNQEFKGKATLTVDTSSSTAYMQLSSLTSEDSAVYYCARDSTVVAPMDYWGQGTSVTVSS" recorded_measurement=0.07
binder="mab002 scFv-hFc (Fc fusion, human-murine chimeric scFv-hFc, VL-linker-VH-human IgG1 Fc; not shown: linker; Fc fragment of human IgG1) scFv (part 1 of 2): QIVLTQSPAIMSASPGEKVTMTCSARSSVSYMQWYQQKSGTSPKRWIYDTSKLASGVPARFSGSGSGTSYSLTISTMEAEDAATYYCQQWSSDPPTFGGGTKLEIK scFv (part 2 of 2): QIQLVQSGPELKKPGETVKISCKASGYTFTNYGMNWLKQAPGKGLKWMGWINTYTGESTYADDFKGRFAFSLETSASTVYLQINNLKNEDMATYFCARMGDGYYDFTMDYWGQGTSVTVSS" recorded_measurement=0.05
